Where do these numbers come from? They come from PubChem BioAssay (Tox21).

METHOD: qHTS assay to identify small molecule antagonists of the thyroid receptor (TR) signaling pathway (AID 743065); further: nearly all actives have a fitted effect of over 55% in size
STUDY CONDITIONS: GH3.TRE-Luc, T3-stimulated luciferase inhibition, 23.5 h; series mostly up to 70.3 µM
Inconclusive results are not listed. The source made the active and inactive calls. The call rests on the fitted dose curve; in most records, active means well fitted inhibition curve with a large enough effect in the repeat runs; inconclusive means weak or mixed curves; inactive means no such curve, though single readings can be large or run the other way.
Bench note: report the call from active, inactive

MOLECULE | CATEGORY
N[C@@H](CSSC[C@H](N)C(=O)O)C(=O)O | inactive

-- ask Fill in: this test's call for `N#CSCSc1nc2ccccc2s1` is ___
-- reply active

-- ask Fill in: this test's call for `C[Si](C)(C)Cl` is ___
-- reply inactive

-- ask Fill in: this test's call for `C=C[C@](C)(O)CC[C@@H]1[C@@]2(C)CCCC(C)(C)[C@@H]2CC[C@@]1(C)O` is ___
-- reply active

-- ask Fill in: this test's call for `Oc1ccc(-c2ccc(O)cc2)cc1` is ___
-- reply inactive

-- ask Fill in: this test's call for C1CC(COCC2CO2)CCC1COCC1CO1 (centres undefined) is ___
-- reply active

-- ask Fill in: this test's call for `ClC/C=C\CCl` is ___
-- reply inactive

-- ask Fill in: this test's call for `Cc1cc(Nc2ccc(O)cc2)ccc1N` is ___
-- reply active

-- ask Fill in: this test's call for `O=Nc1ccc(NO)cc1` is ___
-- reply inactive
